- System: MDA-MB-231 breast
- assay overview: NCI tumour cell line growth inhibition, 48 h; in the data active = GI50 below about 0.43 µM; inactive = the rest
Respond using exactly one of the listed classes: true (1) (active), false (0) (inactive)

>>> class_label("CS(=O)(=O)c1ccc(Nc2nc(N[C@H]3CCCC[C@H]3N)nc3cc[nH]c(=O)c23)cc1")
"false (0)"
>>> class_label("Cn1cc(C2=C(c3c[nH]c4ccccc34)C(=O)NC2=O)c2ccccc21")
"false (0)"

Ask | Assay result, entry `C#C[C@@]1(O)[C@@H](CO)O[C@@H](n2cc(I)c3c(N)ncnc32)[C@@H]1O` — outcome?
Reply | true (1)

Ask | Assay result, entry `O=C(NCC(F)(F)F)Nc1cccc(-c2cnc3cc(-c4ccc(F)cc4)ccn23)c1` — outcome?
Reply | false (0)

Ask | Assay result, entry `CC(=O)N1CCN(CCNC(=O)n2cc(-c3ccncc3)c(-c3cc(O)cc(Cl)c3)n2)CC1` — outcome?
Reply | false (0)

Ask | Assay result, entry `COc1ccc(-c2nc(-c3nc4ccc(C)cc4[nH]3)cc3c2[nH]c2ccccc23)cc1` — outcome?
Reply | false (0)

Ask | Assay result, entry `Cc1c(C#N)cccc1[C@@H](C)Nc1nnc(C)c2cnc(N3CCOCC3)cc12` — outcome?
Reply | false (0)

Ask | Assay result, entry `c1ccc(OCCC[P+](c2ccccc2)(c2ccccc2)c2ccccc2)cc1` — outcome?
Reply | false (0)

====

- Tested on: NCI-H460 lung
- assay overview: NCI tumour cell line growth inhibition, 48 h
test readout: TGI

>>> measured("COc1cccc2cc(N(C)c3nc(C)nc4c3CCC4)ccc12")
"12.4 µM"
>>> measured("CCOC(=O)c1cc(-c2ccc(-c3cc(C(=O)OCC)c(C#N)c(N)c3C#N)cc2)c(C#N)c(N)c1C#N")
"> 100 µM"
>>> measured("COc1ccccc1NC(=O)CC(=O)NN")
"> 100 µM"
>>> measured("Oc1ccc(-c2nc3ccccc3s2)cc1")
"> 100 µM"
>>> measured("O=[Se](O)O")
"> 49.9 µM"
>>> measured("Nc1c(S(=O)(=O)O)cc(S(=O)(=O)O)c2ccc(N=Nc3ccc(/C=C/c4ccc(N=Nc5ccc6c(S(=O)(=O)O)cc(S(=O)(=O)O)c(N)c6c5O)cc4S(=O)(=O)O)c(S(=O)(=O)O)c3)c(O)c12")
"> 100 µM"
>>> measured("O=C(C(=O)n1ncc(Cl)c(Cl)c1=O)n1ncc(Cl)c(Cl)c1=O")
"> 100 µM"
>>> measured("Cn1cc(C2=C(c3c[nH]c4ccccc34)C(=O)NC2=O)c2ccccc21")
"> 25 µM"
>>> measured("CC1=CCC[C@H]2[C@](C)(CC3=CC(=O)C(SCC(C)C)=CC3=O)[C@@H](C)CC[C@]12C")
"31.5 µM"
>>> measured("CCC(C)CC(C)CC(C)/C=C(\\C)C1=C(C)CC(C)(O)O1 (configuration not stated)")
"> 100 µM"

Ask | Quickly give me recorded TGI for `O=C1/C(=C/c2cccc3ccccc23)CCc2ccc([N+](=O)[O-])cc21`
Reply | > 100 µM

Ask | Quickly give me recorded TGI for `Nc1nc2c(C(=O)NCc3cccs3)nnn2c2cccc(Cl)c12`
Reply | > 100 µM

Ask | Quickly give me recorded TGI for `COc1ccc2oc3c(OC)c(OC)c(OC)cc3c(=O)c2c1`
Reply | > 100 µM

Ask | Quickly give me recorded TGI for `COc1ccc(C(=O)/C=C/c2cc(-c3cc(OC)c(OC)c(OC)c3)n[nH]2)cc1`
Reply | 3.75 µM

Ask | Quickly give me recorded TGI for CCC(=O)OC1CCn2c1nc1c2C(=O)C(C)=C(NC(C)=O)C1=N (configuration not stated)
Reply | 3 µM

Values were extracted from PubChem BioAssay (NCI).
